Hello, the source for this data is PubChem BioAssay AID1996, in case you need it.

conditions: buffer; pH 7.4; 200.0 µM

compound: O=C(CN1CCCc2ccccc21)NCCc1ccc(F)cc1
solubility kinetic: > 46.9 µg/mL
//
compound: CCc1nc2ccccc2c(C(=O)Nc2ccc(F)cc2)c1C
solubility kinetic: < 0.3 µg/mL
//
compound: Cc1ccc(S(=O)(=O)N2CC(=O)NC(=O)C2)cc1
solubility kinetic: > 40.2 µg/mL
//
compound: O=c1[nH]c(=O)n(CC2CCCO2)c(O)c1/C=C1\C=Nc2ccccc21 (centres undefined)
solubility kinetic: > 50.9 µg/mL
//
compound: CCCN(CC1CC1)C(=S)Nc1ccc(C(C)=O)cc1
solubility kinetic: > 43.6 µg/mL
//
compound: CCc1ccc(C(C)NC(=O)c2ccncc2)cc1 (centres undefined)
solubility kinetic: > 38.1 µg/mL
//
compound: COc1ccc(CNC(=O)c2c(O)c3ccccc3n(C)c2=O)cc1
solubility kinetic: < 0.4 µg/mL
//
compound: Cc1ccc(-n2c(O)c(C=NCC3CCCO3)c(=O)[nH]c2=O)c(C)c1 (centres undefined)
solubility kinetic: > 51.5 µg/mL
//
compound: CCCC12CN3CC(C)(CN(C1)C3c1ccc([N+](=O)[O-])o1)C2=O (centres undefined)
solubility kinetic: > 47.9 µg/mL
//
compound: Cc1cc(Cl)ccc1NC(=O)CCC(=O)N/N=C/c1cccnc1
solubility kinetic: > 51.7 µg/mL
//
compound: CCCCC(=O)NC(=O)NC(c1ccccc1)c1ccccc1
solubility kinetic: < 0.3 µg/mL
//
compound: COc1ccccc1NS(=O)(=O)c1ccc(OC)c([N+](=O)[O-])c1
solubility kinetic: > 50.8 µg/mL
//
compound: Cc1ccccc1C(=O)N1CCN(c2ncccn2)CC1
solubility kinetic: > 42.4 µg/mL
//
compound: c1cncc(-c2nc(NCC3CCCO3)c3ccccc3n2)c1 (centres undefined)
solubility kinetic: > 46 µg/mL

---

conditions: buffer; pH 7.4; 200.0 µM
readoutType: solubility kinetic

molecule: CCc1noc(C)c1C(=O)OCC(=O)NC(C)c1ccccc1 (stereo not given)
readoutType: solubility kinetic
valueObserved: > 47.5 µg/mL
--
molecule: CCOC(=O)N1CCC(NS(=O)(=O)c2ccc(C#N)cc2)CC1
readoutType: solubility kinetic
valueObserved: > 50.6 µg/mL
--
molecule: CCN1CCN(c2ccc(NC(=O)c3ccc(Br)o3)cc2)CC1
readoutType: solubility kinetic
valueObserved: > 56.7 µg/mL
--
molecule: CCCCN(C(=O)Nc1ccccc1)C1CCS(=O)(=O)C1 (stereo not given)
readoutType: solubility kinetic
valueObserved: > 46.6 µg/mL
--
molecule: O=C(Cc1nc(-c2cnccn2)no1)NNC(=O)Nc1ccccc1
readoutType: solubility kinetic
valueObserved: > 50.9 µg/mL
--
molecule: COc1ccc(S(=O)(=O)N2CCOCC2)cc1NC(=O)C1CC1
readoutType: solubility kinetic
valueObserved: > 51.1 µg/mL
--
molecule: CCOC(=O)c1cc(C#N)c(SCC(=O)OC)[nH]c1=O
readoutType: solubility kinetic
valueObserved: > 44.4 µg/mL
--
molecule: CC1C(=O)Nc2ccccc2N1C(=O)c1ccc(F)cc1F (stereo not given)
readoutType: solubility kinetic
valueObserved: > 45.3 µg/mL
--
molecule: CC(NC(=O)CN(C)Cc1cccc(F)c1)c1ccccc1 (stereo not given)
readoutType: solubility kinetic
valueObserved: > 45.1 µg/mL
--
molecule: Cc1ccnc(NC(=O)c2ccc3c(c2)OCO3)c1
readoutType: solubility kinetic
valueObserved: > 38.4 µg/mL
--
molecule: O=C(NCC(=O)N1CCc2ccccc2C1)c1ccccc1Cl
readoutType: solubility kinetic
valueObserved: > 49.3 µg/mL
--
molecule: Cc1sc2nc(CC(=O)N3CCCC3)[nH]c(=O)c2c1C
readoutType: solubility kinetic
valueObserved: > 43.7 µg/mL
--
molecule: Cc1[nH]c2ccccc2c1CCNCc1ccco1.Cl
readoutType: solubility kinetic
valueObserved: > 43.6 µg/mL
--
molecule: O=C(COC(=O)c1ccco1)NCc1ccc2c(c1)OCO2
readoutType: solubility kinetic
valueObserved: > 45.5 µg/mL
--
molecule: O=S(=O)(Nc1cccc(S(=O)(=O)N2CCCCC2)c1)c1ccc(Cl)s1
readoutType: solubility kinetic
valueObserved: > 63.1 µg/mL
--
molecule: COc1ccccc1NC(=O)O/N=C(\N)c1ccccc1
readoutType: solubility kinetic
valueObserved: > 42.8 µg/mL
--
molecule: Cc1cccc(NC(=O)N2CCCCCC2)c1C
readoutType: solubility kinetic
valueObserved: > 37 µg/mL
--
molecule: CCc1ccc(C(=O)N2CCCN(C)CC2)s1
readoutType: solubility kinetic
valueObserved: > 37.9 µg/mL
--
molecule: Cc1ccccc1OCC(=O)OCC(=O)NC1CC1
readoutType: solubility kinetic
valueObserved: > 39.5 µg/mL
--
molecule: N#Cc1cc(Sc2ccccn2)c([N+](=O)[O-])cc1C#N
readoutType: solubility kinetic
valueObserved: > 42.3 µg/mL
